Biological target: UniProt Q9NR97
Experiment: Dose dependent TLR8-mediated NF-κB-luciferase response in HEK293 cells transfected with TLR8 (Example 5)
Type: cell-based
Design: expressed in transfected cells; host or cells: HEK293 (ATCC CRL-1573), pIRES vector, G-418 selected, co-transfected with NFkB-luc reporter
Conditions: 0.1 μM
READOUT TYPE: Fold increase over vehicle
# output: numeric value plus its unit

Prompt: Entry CCCCc1nc2c(N)nc3ccccc3c2n1CCCS(C)(=O)=O : reported Fold increase over vehicle = ?
Completion: 1.0 fold

Prompt: I would be grateful if you could share the reported Fold increase over vehicle for CCOCc1nc2c(N)nc3cc(-c4ccc(C(=O)N(C)OC)cc4)ccc3c2n1CC(C)(C)O .
Completion: 1.0 fold

Prompt: Value lookup for Fold increase over vehicle; key = CCCCc1nc2c(N)nc3ccccc3c2n1CCS(=O)(=O)CC
Completion: 1.0 fold

Prompt: Consider the molecule shown here: CCc1nc2c(N)nc3cc(-c4ccncc4)ccc3c2n1CC(C)(C)O What is its recorded Fold increase over vehicle?
Completion: 1.0 fold

Prompt: Dear colleague, I am looking for the recorded Fold increase over vehicle of the following molecule: CCOCc1nc2c(N)nc3c(c2n1NC(C)C)CCCC3
Completion: 1.1 fold

Prompt: Suppose we examine the molecule CCCCc1nc2c(N)nc3ccccc3c2n1CCS(C)(=O)=O ; what Fold increase over vehicle value has been reported?
Completion: 1.5 fold

Prompt: Any idea what its Fold increase over vehicle is? The molecule is CCc1nc2c(N)nc3ccccc3c2n1CCS(C)(=O)=O
Completion: 0.9 fold

Prompt: Requested read-out: Fold increase over vehicle. Entry: COCCc1nc2c(N)nc3cc(-c4cncc(CO)c4)ccc3c2n1CC(C)(C)O
Completion: 1.1 fold

Prompt: Look at this molecule and give its reported Fold increase over vehicle. CCCNC(=O)NC(C)(C)Cn1c(COCC)nc2c(N)nc3ccccc3c21
Completion: 0.7 fold

====

Molecular target: TLR8 (Homo sapiens, UniProt Q9NR97)
Sequence (Q9NR97 27-1041): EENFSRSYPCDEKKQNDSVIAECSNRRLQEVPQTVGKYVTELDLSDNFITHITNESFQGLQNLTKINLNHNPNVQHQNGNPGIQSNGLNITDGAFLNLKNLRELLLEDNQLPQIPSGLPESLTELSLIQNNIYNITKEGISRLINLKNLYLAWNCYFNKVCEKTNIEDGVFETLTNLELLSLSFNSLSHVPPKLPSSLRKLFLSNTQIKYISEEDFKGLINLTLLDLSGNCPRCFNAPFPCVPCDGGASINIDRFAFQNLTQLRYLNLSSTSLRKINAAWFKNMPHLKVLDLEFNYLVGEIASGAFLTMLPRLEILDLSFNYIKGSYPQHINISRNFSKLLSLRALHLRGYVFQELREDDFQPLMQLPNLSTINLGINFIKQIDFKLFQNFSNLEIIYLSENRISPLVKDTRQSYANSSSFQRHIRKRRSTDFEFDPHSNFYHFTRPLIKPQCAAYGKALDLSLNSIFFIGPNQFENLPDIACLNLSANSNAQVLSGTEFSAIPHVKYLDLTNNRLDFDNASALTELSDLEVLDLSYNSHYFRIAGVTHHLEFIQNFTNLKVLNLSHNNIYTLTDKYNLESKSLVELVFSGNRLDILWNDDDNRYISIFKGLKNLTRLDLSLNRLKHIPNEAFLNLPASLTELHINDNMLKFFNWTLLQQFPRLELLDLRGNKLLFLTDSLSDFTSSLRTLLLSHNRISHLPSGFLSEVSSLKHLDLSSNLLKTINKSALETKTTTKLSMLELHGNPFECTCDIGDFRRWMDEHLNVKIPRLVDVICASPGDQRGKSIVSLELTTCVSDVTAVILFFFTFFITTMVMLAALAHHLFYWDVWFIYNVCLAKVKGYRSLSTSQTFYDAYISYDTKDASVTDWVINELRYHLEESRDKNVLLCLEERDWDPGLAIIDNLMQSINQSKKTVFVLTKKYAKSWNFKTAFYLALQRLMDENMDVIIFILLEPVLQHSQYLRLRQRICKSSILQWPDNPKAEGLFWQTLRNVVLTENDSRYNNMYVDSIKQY
Assay: Dose dependent TLR8-mediated NF-κB-luciferase response in HEK293 cells transfected with TLR8 (Example 5)
Type: cell-based
Design: expressed in transfected cells; host or cells: HEK293 (ATCC CRL-1573), pIRES vector, G-418 selected, co-transfected with NFkB-luc reporter
Details: 10 μM
READOUT TYPE: Fold increase over vehicle
A complete answer gives the number and then names the unit.

Prompt: State the recorded Fold increase over vehicle for this entry: COCCc1nc2c(N)nc3ccccc3c2n1CCCCNC(=O)c1cnc2ccccc2n1
Completion: 6.9 fold

Prompt: For the compound shown here, COCCc1nc2c(N)nc3cc(-c4cncc(CO)c4)ccc3c2n1CC(C)(C)O , give the reported Fold increase over vehicle.
Completion: 7.0 fold

Prompt: Endpoint output: Fold increase over vehicle of CCOCc1nc2c(N)nc3ccccc3c2n1CC(C)(C)NC(=O)NC(C)C . Value?
Completion: 4.9 fold

Prompt: Consider the compound CCCCc1nc2c(N)nc3ccccc3c2n1CC(C)(C)CNC(=O)N1CCOCC1 and give its measured Fold increase over vehicle.
Completion: 3.9 fold

Prompt: What measured Fold increase over vehicle goes with CCOCc1nc2c(N)nc3c(c2n1NC(C)C)CCCC3 ?
Completion: 6.2 fold

Prompt: Which Fold increase over vehicle is listed for CCCCc1nc2c(N)nc3ccccc3c2n1CCS(=O)(=O)CC ?
Completion: 13.2 fold

Prompt: Given the compound CCc1nc2c(N)nc3ccccc3c2n1CCS(C)(=O)=O , what is its reported Fold increase over vehicle?
Completion: 2.5 fold

Prompt: Looking for the measured Fold increase over vehicle of CCOCc1nc2c(N)nc3ccccc3c2n1CC(C)(C)NC(=O)NC1CCCC1 , can you help?
Completion: 5.9 fold

Prompt: Field request: Fold increase over vehicle | item: CCCCc1nc2c(N)nc3ccccc3c2n1CCCS(C)(=O)=O
Completion: 3.1 fold

Prompt: Need Fold increase over vehicle of CCOCc1nc2c(N)nc3cc(-c4ccc(CO)cc4)ccc3c2n1CC1COC(C)(C)O1 (stereo not drawn) , thanks.
Completion: 3.6 fold

Prompt: Endpoint output: Fold increase over vehicle of CCOCc1nc2c(N)nc3cc(-c4cccc(C(=O)N5CCCC5)c4)ccc3c2n1CC(C)(C)O . Value?
Completion: 6.9 fold

Prompt: Could you share which Fold increase over vehicle value was measured for CCc1nc2c(N)nc3cc(-c4ccncc4)ccc3c2n1CC(C)(C)O ?
Completion: 9.5 fold

Prompt: Consider the compound shown here: CCCCc1nc2c(N)nc3ccccc3c2n1CCCNC(=O)N1CCOCC1 What is its recorded Fold increase over vehicle?
Completion: 6.8 fold

Prompt: Field request: Fold increase over vehicle | item: COCCc1nc2c(N)nc3cc(-c4cccc(NS(C)(=O)=O)c4)ccc3c2n1CC(C)(C)O
Completion: 11.7 fold

Prompt: Return reported Fold increase over vehicle; argument: CCOCc1nc2c(N)nc3cc(-c4cncc(CO)c4)ccc3c2n1CC(C)(C)O
Completion: 7.8 fold
